B1: DCAF4 (parent)
chain: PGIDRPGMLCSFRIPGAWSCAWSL

Variants of: B1
assay_protocol: protein stability index of a GFP-peptide fusion (GPS, HEK-293T) (PSI 1-6); higher = more stable;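 also: lentivirally expressed fusions sorted by FACS into six bins by GFP to DsRed ratio, PSI derived from sequencing read proportions per bin multiplied by bin number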
assay_setup: c terminus: a fixed tail appended
Catalogue of variants with associated protein stability index
# output: bare number, no unit

Take a look at these entries with their results.
construct_sequence: PGIDRPGMLCSFRIPGAWSCRWSL
protein stability index: 2.22
--
construct_sequence: PGIDRPRMLCSFRIPGAWSCAWSL
protein stability index: 2.05
--
construct_sequence: PGIDRPGMLCSFRIPGACSCAWSL
protein stability index: 2.32
--
construct_sequence: PGIDRPGMLCSFRIPHAWSCAWSL
protein stability index: 4.24

Briefly, protein stability index measured for PGIDRPGMWCSFRIPGAWSCAWSL : 2.82

Record summary for PGGDRPGMLCSFRIPGAWSCAWSL : reported protein stability index = 1.51

GET /value?item= PGIDRPGMLCAFRIPGAWSCAWSL &field=protein stability index returns 3.01

What the record says about PGIDRPGMLCSFRIMGAWSCAWSL : protein stability index is 2.89

Recorded protein stability index (variant PGIDRPGMLCSFRIYGAWSCAWSL ): 3.12

protein stability index recorded for this variant, PGIDRPGMLCSFRIPGRWSCAWSL , is 3

// PWIDRPGMLCSFRIPGAWSCAWSL : protein stability index value = 1.83
